- target: T1, TRCW5 antigen (CD3δε-Fc-Avi) (biotinylated (site not stated))
- T1 construct: also called recombinant CD3
- T1 sequence (chain, as listed by the source mutant limits assumed): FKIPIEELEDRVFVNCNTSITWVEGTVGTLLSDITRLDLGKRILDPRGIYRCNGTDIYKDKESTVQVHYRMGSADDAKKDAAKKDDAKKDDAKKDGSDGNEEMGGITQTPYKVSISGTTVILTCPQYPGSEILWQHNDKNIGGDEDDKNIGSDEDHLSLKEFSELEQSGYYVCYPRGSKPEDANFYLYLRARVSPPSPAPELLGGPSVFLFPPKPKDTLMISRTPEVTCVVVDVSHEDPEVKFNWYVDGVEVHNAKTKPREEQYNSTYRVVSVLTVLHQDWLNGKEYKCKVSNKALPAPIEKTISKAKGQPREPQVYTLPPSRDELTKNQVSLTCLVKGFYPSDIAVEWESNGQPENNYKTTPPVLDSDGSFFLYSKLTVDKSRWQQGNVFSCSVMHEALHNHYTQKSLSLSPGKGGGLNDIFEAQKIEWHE
- assay info: ELISA after heat
observed property: % Retained 55° C. (%)
The answer is to be given in %; state only the numeric part.

Example binders with recorded % Retained 55° C.:
CD3B2036 (scFv) scFv: QVQLVQSGAEVKKPGSSVKVSCKASGYTFTRSTMHWVKQAPGQGLEWMGYINPSSAYTNYAQKFQGRVTLTADKSTSTAYMELSSLRSEDTAVYYCASPQVHYDYNGFPYWGQGTLVTVSSGGSEGKSSGSGSESKSTGGSEIVLTQSPATLSASPGERVTLSCSASSSVSYMNWYQQKPGTAPRRWIYDSSKLASGVPARFSGSGSGRDYTLTISSLEPEDFAVYYCQQWSRNPPTFGGGTKVEIK    108
CD3B2030 N106Q (scFv, also called CD3B2030 NtoQ) scFv: QVQLVQSGAEVKKPGSSVKVSCKASGYTFTRSTMHWVKQAPGQGLEWIGYINPSSAYTNYNQKFQGRVTLTADKSTSTAYMELSSLRSEDTAVYYCASPQVHYDYQGFPYWGQGTLVTVSSGGSEGKSSGSGSESKSTGGSEIVLTQSPATLSASPGERVTLSCSASSSVSYMNWYQQKPGQAPRRWIYDSSKLASGVPARFSGSGSGRDYTLTISSLEPEDFAVYYCQQWSRNPPTFGGGTKVEIK    111

# input for lookup
Problem: Endpoint output: % Retained 55° C. of CD3B2031 (scFv) scFv: QVQLVQSGAEVKKPGSSVKVSCKASGYTFTRSTMHWVKQAPGQGLEWMGYINPSSAYTNYNQKFQGRVTLTADKSTSTAYMELSSLRSEDTAVYYCASPQVHYDYNGFPYWGQGTLVTVSSGGSEGKSSGSGSESKSTGGSEIVLTQSPATLSASPGERVTLSCSASSSVSYMNWYQQKPGTAPRRWIYDSSKLASGVPARFSGSGSGRDYTLTISSLEPEDFAVYYCQQWSRNPPTFGGGTKVEIK . Value?
Solution: 108
